Cited source for all entries: patent US20250250357A1

target: T1, human MSLN-FL-his protein (human, UniProt Q13421 296-580); assay: SPR (Biacore), antibody captured on Protein A chip;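 also: measured at 25 °C, analyte injected 240 s in five twofold dilutions from 200 nM, dissociation up to 600 s, double-referenced, fitted with Langmuir 1:1 model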
T1 construct: made in HEK293E cells, purified on nickel column; also called hMSLN-FL-his; human MSLN full-length protein; not shown: His tag
T1 sequence (Q13421 other isoform, or with tags, fused parts or gaps): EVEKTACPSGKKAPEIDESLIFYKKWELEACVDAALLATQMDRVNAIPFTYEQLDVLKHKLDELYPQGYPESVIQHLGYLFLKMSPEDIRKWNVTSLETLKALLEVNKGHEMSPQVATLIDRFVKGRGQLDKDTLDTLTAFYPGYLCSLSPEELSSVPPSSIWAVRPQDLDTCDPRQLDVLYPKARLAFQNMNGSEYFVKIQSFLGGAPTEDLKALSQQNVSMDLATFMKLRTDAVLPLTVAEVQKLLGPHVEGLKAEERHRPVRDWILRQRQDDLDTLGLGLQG
VALUE_KIND: Kd (nM)
Number in nM, nothing else.

The reported value for S009-F2.13.3 (antibody, human IgG1, kappa, V domains shown, human-murine chimeric antibody, human IgG1/kappa constant regions) VH: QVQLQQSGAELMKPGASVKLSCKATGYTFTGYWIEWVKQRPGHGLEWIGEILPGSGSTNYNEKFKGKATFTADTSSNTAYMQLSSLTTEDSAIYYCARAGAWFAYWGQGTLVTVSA VL: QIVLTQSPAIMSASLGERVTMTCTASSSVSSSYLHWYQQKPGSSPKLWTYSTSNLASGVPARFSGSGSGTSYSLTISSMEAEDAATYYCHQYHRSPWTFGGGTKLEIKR in terms of Kd is 8.65

Record S009-F3.74.20 (antibody, human IgG1, kappa, V domains shown, human-murine chimeric antibody, human IgG1/kappa constant regions) VH: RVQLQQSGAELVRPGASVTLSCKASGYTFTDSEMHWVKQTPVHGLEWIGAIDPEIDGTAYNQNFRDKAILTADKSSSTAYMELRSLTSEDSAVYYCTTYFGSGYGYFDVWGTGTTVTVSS VL: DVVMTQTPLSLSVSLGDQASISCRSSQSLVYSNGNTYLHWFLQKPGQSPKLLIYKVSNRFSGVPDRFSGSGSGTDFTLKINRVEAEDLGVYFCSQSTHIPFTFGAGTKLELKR . Reported Kd: 4.92
